assay: Cytotoxicity against HUVEC cells assessed as cell growth inhibition measured after 72 hrs by CCK8 assay; assay type: toxicity, cell-based; settings: human
Provide the recorded IC50 at 72 h for the entries that follow.

Guide cases for IC50 at 72 h, answers given:
1) C=CC(=O)N1CCC(C(=O)Nc2ccc(-c3cc(C)nc4noc(N)c34)cc2)CC1: > 10 µM
2) C=CC(=O)Nc1cccc(CC(=O)Nc2ccc(-c3cc(C)nc4noc(N)c34)cc2)c1: > 10 µM

--- query ---
Quick one: give measured IC50 at 72 h for `C=CC(=O)Nc1ccc(C(=O)Nc2ccc(-c3cc(C)nc4noc(N)c34)cc2)cc1Cl` 2.65 µM

Ref: ChEMBL document CHEMBL5113503
